Measured log10 of IC50, listed per entry for reference.
- ASSAY PROTOCOL: Cell-based activity under Prompt Conditions: Cell-based activity under Prompt Conditions. Rat or human NHE3-mediated Na+-dependent H+ antiport was measured using a modification of the pH sensitive dye method originally reported by Paradiso (PNAS USA. 81:7436-7440, 1984). Opossum kidney (OK) cells were obtained from the ATCC and propagated per their instructions. The rat NHE3 gene (GenBank M85300) or the human NHE3 gene (GenBank NM_004174.1) was introduced into OK cells via electroporation, and cells were seeded into 96 well plates and grown overnight. Medium was aspirated from the wells, cells were washed twice with NaCl-HEPES buffer (100 mM NaCl, 50 mM HEPES, 10 mM glucose, 5 mM KCl, 2 mM CaCl2, 1 mM MgCl2, pH 7.4), then incubated for 30 min at room temperature with NH4Cl-HEPES buffer (20 mM NH4Cl, 80 mM NaCl, 50 mM HEPES, 5 mM KCl, 2 mM CaCl2, 1 mM MgCl2, pH 7.4) containing 5 μM bis(acetoxymethyl) 3,3′-(3′,6′-bis(acetoxymethoxy)-5-((acetoxymethoxy)carbonyl)-3-oxo-3H-spiro[isobenzofuran-1,9′-xanthene]-2′,7′-diyl)dipropanoate (BCECF-AM).Cells were washed twice with Ammonium free, Na+-free HEPES (100 mM choline, 50 mM HEPES, 10 mM glucose, 5 mM KCl, 2 mM CaCl2, 1 mM MgCl2, pH 7.4) and incubated in the same buffer for 10 minutes at room temperature to lower intracellular pH. […] Initial rates were plotted as the average 2 or more replicates, and pIC50 values were estimated using GraphPad Prism.
PROPERTY: log10 of IC50 (log10 of the value in nM)

CN1Cc2c(Cl)cc(Cl)cc2[C@H](c2cccc(S(=O)(=O)NCCOCCOCCOCCNC(=O)NCCN(CCNC(=O)NCCOCCOCCOCCNS(=O)(=O)c3cccc([C@@H]4CN(C)Cc5c(Cl)cc(Cl)cc54)c3)CCNC(=O)NCCOCCOCCOCCNS(=O)(=O)c3cccc([C@@H]4CN(C)Cc5c(Cl)cc(Cl)cc54)c3)c2)C1 | 2.10
CN1Cc2c(Cl)cc(Cl)cc2[C@H](c2cccc(S(=O)(=O)NCCOCCOCCNC(=O)CCC(CCC(=O)NCCOCCOCCNS(=O)(=O)c3cccc([C@@H]4CN(C)Cc5c(Cl)cc(Cl)cc54)c3)(CCC(=O)NCCOCCOCCNS(=O)(=O)c3cccc([C@@H]4CN(C)Cc5c(Cl)cc(Cl)cc54)c3)NC(=O)Cn3ccnc3)c2)C1 | 2.20
O=C(NCCOCCOCCNS(=O)(=O)c1ccc(O[C@H]2c3ccccc3C[C@@H]2N2CCCCC2)cc1)[C@H](O)[C@@H](O)C(=O)NCCOCCOCCNS(=O)(=O)c1ccc(O[C@H]2c3ccccc3C[C@@H]2N2CCCCC2)cc1 | 0.60
CN1Cc2c(Cl)cc(Cl)cc2[C@H](c2cccc(S(=O)(=O)NCCOCCOCCNC(=O)CN(CCOCCOCCN(CC(=O)NCCOCCOCCNS(=O)(=O)c3cccc([C@@H]4CN(C)Cc5c(Cl)cc(Cl)cc54)c3)CC(=O)NCCOCCOCCNS(=O)(=O)c3cccc([C@@H]4CN(C)Cc5c(Cl)cc(Cl)cc54)c3)CC(=O)NCCOCCOCCNS(=O)(=O)c3cccc([C@@H]4CN(C)Cc5c(Cl)cc(Cl)cc54)c3)c2)C1 | 3.20
CN1Cc2c(Cl)cc(Cl)cc2[C@H](c2cccc(S(=O)(=O)NCCOCCOCCNC(=O)NCCN(CCNC(=O)NCCOCCOCCNS(=O)(=O)c3cccc([C@@H]4CN(C)Cc5c(Cl)cc(Cl)cc54)c3)CCNC(=O)NCCOCCOCCNS(=O)(=O)c3cccc([C@@H]4CN(C)Cc5c(Cl)cc(Cl)cc54)c3)c2)C1 | 3.40
CN1Cc2c(Cl)cc(Cl)cc2[C@H](c2cccc(S(=O)(=O)NCCOCCOCCNC(=O)CCC(CCC(=O)NCCOCCOCCNS(=O)(=O)c3cccc([C@@H]4CN(C)Cc5c(Cl)cc(Cl)cc54)c3)(CCC(=O)NCCOCCOCCNS(=O)(=O)c3cccc([C@@H]4CN(C)Cc5c(Cl)cc(Cl)cc54)c3)NC(=O)N[C@@H](CO)C(=O)O)c2)C1 | 1.10
CN1Cc2c(Cl)cc(Cl)cc2[C@H](c2cccc(S(=O)(=O)NCCOCCOCCOCCn3cc(CN(Cc4cn(CCOCCOCCOCCNS(=O)(=O)c5cccc([C@@H]6CN(C)Cc7c(Cl)cc(Cl)cc76)c5)nn4)Cc4cnnn4CCOCCOCCOCCNS(=O)(=O)c4cccc([C@@H]5CN(C)Cc6c(Cl)cc(Cl)cc65)c4)nn3)c2)C1 | 3.70
